Source listed as patent US20200361871A1.

biological target: human TMEM16A (TMEM16Aabc variant) (Homo sapiens, UniProt Q5XXA6, DEL476-501, form not given); assay: Automated whole-cell patch clamp (Qpatch) TMEM16A potentiator assay in FRT cells stably expressing human TMEM16A; type: cell-based; conditions: 3.33 μM solution of test compound; percentage increase of baseline TMEM16A current
Sequence (Q5XXA6 with tags, fused parts or gaps DEL476-501): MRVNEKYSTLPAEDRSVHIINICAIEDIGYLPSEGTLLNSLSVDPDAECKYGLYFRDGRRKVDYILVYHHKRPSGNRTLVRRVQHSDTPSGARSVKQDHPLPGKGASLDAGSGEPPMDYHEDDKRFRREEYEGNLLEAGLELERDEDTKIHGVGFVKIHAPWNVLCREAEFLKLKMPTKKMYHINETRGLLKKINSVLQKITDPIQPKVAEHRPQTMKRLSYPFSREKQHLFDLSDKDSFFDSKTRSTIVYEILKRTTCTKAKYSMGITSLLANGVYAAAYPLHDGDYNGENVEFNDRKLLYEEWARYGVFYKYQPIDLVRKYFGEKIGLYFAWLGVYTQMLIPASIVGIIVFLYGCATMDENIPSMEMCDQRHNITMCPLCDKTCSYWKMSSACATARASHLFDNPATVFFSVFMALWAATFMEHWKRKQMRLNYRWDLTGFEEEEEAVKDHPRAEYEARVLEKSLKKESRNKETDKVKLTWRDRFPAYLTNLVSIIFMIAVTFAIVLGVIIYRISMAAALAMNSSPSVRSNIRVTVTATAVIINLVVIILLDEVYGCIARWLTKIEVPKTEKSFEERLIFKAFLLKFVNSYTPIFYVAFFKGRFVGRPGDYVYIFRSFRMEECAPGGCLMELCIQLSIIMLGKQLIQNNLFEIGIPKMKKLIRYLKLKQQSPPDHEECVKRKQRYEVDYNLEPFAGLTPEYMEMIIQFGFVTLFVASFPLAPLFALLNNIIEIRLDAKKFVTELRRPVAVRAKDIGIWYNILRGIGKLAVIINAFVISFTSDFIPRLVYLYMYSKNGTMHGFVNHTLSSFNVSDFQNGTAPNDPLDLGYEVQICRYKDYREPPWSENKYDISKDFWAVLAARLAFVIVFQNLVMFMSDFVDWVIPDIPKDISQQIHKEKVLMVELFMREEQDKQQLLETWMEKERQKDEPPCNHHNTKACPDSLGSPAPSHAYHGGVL
reported metric: % Potentiation @ 3.33 μM Avg (%)
// return numeric value only (unit: %, not printed)

Here are 3 compounds together with their reported answers.
- record smiles: "CC(C)(C#N)NC(=O)c1cc(NC(=O)CCC2CCCCC2)ccn1"
  reported metric: "% Potentiation @ 3.33 μM Avg"
  unit text: "%"
  value reported: 185
- record smiles: "COc1ccc(CNC(=O)c2cc(NC(=O)Cc3cc(Cl)ccc3O)ccn2)nc1"
  reported metric: "% Potentiation @ 3.33 μM Avg"
  unit text: "%"
  value reported: 158
- record smiles: "O=C(Cc1cc(Cl)ccc1O)Nc1ccnc(C(=O)NC2(CO)CCOCC2)c1"
  reported metric: "% Potentiation @ 3.33 μM Avg"
  unit text: "%"
  value reported: 184

Looking up "Cc1nn(-c2ccccc2)cc1C(=O)Nc1ccnc(C(=O)NC(C)(C)C#N)c1" , I found its % Potentiation @ 3.33 μM Avg recorded as 55

Looking up "CC(C)(C)NC(=O)c1cc(NC(=O)NCc2cccc(O)c2)ccn1" , I found its % Potentiation @ 3.33 μM Avg recorded as 33

Looking up "COc1ccccc1-c1cc(C(=O)Nc2ccnc(C(=O)NC(C)(C)C#N)c2)no1" , I found its % Potentiation @ 3.33 μM Avg recorded as -11

Looking up "CC(C)(C#N)NC(=O)c1cc(NC(=O)c2ccccc2-n2cccn2)ccn1" , I found its % Potentiation @ 3.33 μM Avg recorded as -10

Looking up "O=C(Cc1ccccc1F)Nc1ccnc(C(=O)NC23CCC(F)(C2)C3)c1" , I found its % Potentiation @ 3.33 μM Avg recorded as 126
